Target: IL-17A/F (Homo sapiens, UniProt Q16552+Q96PD4)
Sequence (Q16552 24-155): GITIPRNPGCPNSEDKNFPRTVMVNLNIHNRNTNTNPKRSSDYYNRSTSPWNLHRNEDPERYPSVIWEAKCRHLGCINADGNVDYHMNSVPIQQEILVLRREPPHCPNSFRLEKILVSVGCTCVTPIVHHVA
Sequence (Q96PD4 31-163): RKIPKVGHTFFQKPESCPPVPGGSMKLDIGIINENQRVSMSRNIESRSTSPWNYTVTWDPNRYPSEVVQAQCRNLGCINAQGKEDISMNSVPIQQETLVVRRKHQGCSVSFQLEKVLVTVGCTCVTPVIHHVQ
Protocol Text: IL-17A/F HEK-Blue cell assay (SEAP reporter)
Reported Conditions: HEK-Blue IL-17A reporter cells, IL17A/F 5 ng/mL, 20 hours, SEAP read at A630; read-out: HEK-Blue IL17AF (IC50 for IL-17A/F inhibition)
pIC50: −log10 of the molar value.
Measured pIC50, listed per entry for reference.

Cc1nonc1C(=O)N[C@H](c1cn2nc(C[C@H]3C[C@@H](C(F)(F)F)CNC3=O)c(C3CCOCC3)nc2n1)C1CCC(F)(F)CC1 [Compound 148]	< 6.00
CCn1nccc1C(=O)N[C@H](c1cn2nc(C[C@H]3C[C@@H](C(F)(F)F)CNC3=O)c(N3C[C@H](C)O[C@@H](C)C3)nc2n1)C1CCC(F)(F)CC1 [Compound 420]	6.00 to 7.00

Consider the record given below.
Per the record, CCn1nccc1C(=O)N[C@H](c1cn2nc(CN3CC(F)(F)CNC3=O)c(C3CCOCC3)nc2n1)C1CCC(F)(F)CC1 [Compound 435] has pIC50 of < 6.00
